Reported IC50 values for a set of compounds
Test system: ACN;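 note: growth inhibition of the human ACN cell line, read out via cell viability testing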
Assay: cells
Type: functional, cell-based
Conditions: Homo sapiens
Description: SANGER: Inhibition of human ACN cell growth in a cell viability assay.
Numeric answer only, unit nM assumed.

Check out these entries, answers already filled in.
| chemical structure | observed measurement |
| --- | --- |
| C/C=C(/C)C(=O)O[C@H]1C(C)=C2[C@H]([C@@H]1OC(=O)CCCCCCC)[C@@](C)(OC(C)=O)C[C@H](OC(=O)CCC)[C@@]1(O)[C@H]2OC(=O)[C@@]1(C)O | 4.69 |
| Cc1n[nH]c2ccc(-c3cncc(OC[C@@H](N)Cc4c[nH]c5ccccc45)c3)cc12 | 909 |
| C[C@]12O[C@H](C[C@]1(O)CO)n1c3ccccc3c3c4c(c5c6ccccc6n2c5c31)CNC4=O | 77.7 |

As a next step, examine the compound that follows.
Lookup: Give the measured IC50 of "CC(C)=CC[C@@H](O)C1=CC(=O)c2c(O)ccc(O)c2C1=O" .
Found: 917

----------
Tested on: BOKU;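 note: growth inhibition of the human BOKU cell line, read out by a cell viability assay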
Assay: cells
Format: functional, cell-based
Settings: Homo sapiens
Description: SANGER: Inhibition of human BOKU cell growth in a cell viability assay.
parameter measured: IC50

| compound | IC50 |
| --- | --- |
| O=c1[nH]c2ccccc2n1C1CCN(Cc2ccc(-c3nc4cc5[nH]cnc5cc4nc3-c3ccccc3)cc2)CC1 | > 2560 nM |
| Cc1nc(Nc2ncc(C(=O)Nc3c(C)cccc3Cl)s2)cc(N2CCN(CCO)CC2)n1 [DASATINIB] | 491 nM |

Lookup: Give the measured IC50 of C/C=C(/C)C(=O)O[C@H]1C(C)=C2[C@H]([C@@H]1OC(=O)CCCCCCC)[C@@](C)(OC(C)=O)C[C@H](OC(=O)CCC)[C@@]1(O)[C@H]2OC(=O)[C@@]1(C)O [THAPSIGARGIN] .
Found: > 512 nM

----------
Reported pIC50 values for a set of compounds
System: Detroit 562
Experiment: cells
Format: functional, cell-based
Details: Homo sapiens
Description: SANGER: Inhibition of human Detroit562 cell growth in a cell viability assay.
pIC50: −log10 of the molar value.

| chemical structure | parameter measured | observed measurement |
| --- | --- | --- |
| Cn1c(=O)n(-c2ccc(C(C)(C)C#N)cc2)c2c3cc(-c4cnc5ccccc5c4)ccc3ncc21 | pIC50 | 6.99 |
| CCCS(=O)(=O)Nc1ccc(F)c(C(=O)c2c[nH]c3ncc(Cl)cc23)c1F | pIC50 | < 5.00 |
| Cn1cc(/C=C2\C(=O)Nc3cccnc32)c2ccccc21 | pIC50 | < 5.70 |

As a next step, examine the compound that follows.
Lookup: Give the measured pIC50 of "C/C(O)=C(\C#N)C(=O)Nc1cc(Br)ccc1Br" .
Found: < 4.80

----------
Reported IC50 values for a set of molecules
System: SW626;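 note: growth inhibition of SW626 cells, measured with a cell viability assay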
Assay: cells
Type: functional, cell-based
Conditions: Homo sapiens
Description: SANGER: Inhibition of human SW626 cell growth in a cell viability assay.
Numeric answer only, unit nM assumed.

Check out these entries, answers already filled in.
| chemical structure | IC50 / nM |
| --- | --- |
| CCNC(=O)c1noc(-c2cc(C(C)C)c(O)cc2O)c1-c1ccc(CN2CCOCC2)cc1 | 21.2 |
| CC(C)=CC[C@@H](O)C1=CC(=O)c2c(O)ccc(O)c2C1=O | 635 |
| Cn1c(=O)n(-c2ccc(C(C)(C)C#N)cc2)c2c3cc(-c4cnc5ccccc5c4)ccc3ncc21 | 176 |
| C[C@]12O[C@H](C[C@]1(O)CO)n1c3ccccc3c3c4c(c5c6ccccc6n2c5c31)CNC4=O | 1130 |

As a next step, examine the molecule that follows.
Lookup: Query the reported IC50 for SW626; item: "CO[C@@]12[C@H](COC(N)=O)C3=C(C(=O)C(C)=C(N)C3=O)N1C[C@@H]1N[C@@H]12"
Found: 286

----------
Test system: BT-549
Experiment: cells
Format: functional, cell-based
Settings: Homo sapiens
Description: SANGER: Inhibition of human BT-549 cell growth in a cell viability assay.
parameter measured: pIC50
Scale for pIC50: -log10 of concentration given in mol/L; no unit attached.

Lookup: Give the measured pIC50 of Cn1c(=O)n(-c2ccc(C(C)(C)C#N)cc2)c2c3cc(-c4cnc5ccccc5c4)ccc3ncc21 [DACTOLISIB] .
Found: 6.92

----------
Reported pIC50 values for a set of molecules
System: EHEB;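 note: growth inhibition of human EHEB cells, read out with a cell viability assay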
Experiment: cells
Format: functional, cell-based
Conditions: Homo sapiens
Description: SANGER: Inhibition of human EHEB cell growth in a cell viability assay.
pIC50: −log10 of the molar value.

| molecule | assayed target | observed measurement |
| --- | --- | --- |
| Cc1[nH]c(/C=C2\C(=O)Nc3ccc(S(=O)(=O)Cc4c(Cl)cccc4Cl)cc32)c(C)c1C(=O)N1CCC[C@@H]1CN1CCCC1 [PHA-665752] | EHEB | < 5.70 |
| N#C/C(=C1/Nc2ccccc2S1)c1ccnc(NCCc2cccnc2)n1 | EHEB | < 5.10 |

As a next step, examine the molecule that follows.
Lookup: Give the measured pIC50 of CC(O)(CS(=O)(=O)c1ccc(F)cc1)C(=O)Nc1ccc(C#N)c(C(F)(F)F)c1 (stereo not drawn) [BICALUTAMIDE] .
Found: < 5.99

----------
System: HCC1806
Assay: cells
Format: functional, cell-based
Details: Homo sapiens
Description: SANGER: Inhibition of human HCC1806 cell growth in a cell viability assay.
Reported IC50 values for a set of molecules
Numeric answer only, unit µM assumed.

| chemical structure | IC50 / µM |
| --- | --- |
| Fc1cc(-c2cc[nH]/c(=N/c3ccc(-n4cnc(N5CCOCC5)n4)cc3)n2)cc(N2CCOCC2)c1 | 0.637 |
| C/C=C(/C)C(=O)O[C@H]1C(C)=C2[C@H]([C@@H]1OC(=O)CCCCCCC)[C@@](C)(OC(C)=O)C[C@H](OC(=O)CCC)[C@@]1(O)[C@H]2OC(=O)[C@@]1(C)O | 0.0024 |
| CCCS(=O)(=O)Nc1ccc(F)c(C(=O)c2c[nH]c3ncc(Cl)cc23)c1F | 6.82 |

Lookup: Give the measured IC50 of "CC[C@@]1(O)C(=O)OCc2c1cc1n(c2=O)Cc2cc3ccccc3nc2-1" .
Found: 0.00314

----------
Reported IC50 values for a set of molecules
Tested on: NCI-H1522
Assay: cells
Format: functional, cell-based
Conditions: Homo sapiens
Description: SANGER: Inhibition of human NCI-H1522 cell growth in a cell viability assay.

Check out these entries, answers already filled in.
| molecule | IC50 |
| --- | --- |
| C/C=C(/C)C(=O)O[C@H]1C(C)=C2[C@H]([C@@H]1OC(=O)CCCCCCC)[C@@](C)(OC(C)=O)C[C@H](OC(=O)CCC)[C@@]1(O)[C@H]2OC(=O)[C@@]1(C)O [THAPSIGARGIN] | > 512 nM |
| CC(O)(CS(=O)(=O)c1ccc(F)cc1)C(=O)Nc1ccc(C#N)c(C(F)(F)F)c1 (centres undefined) [BICALUTAMIDE] | > 1020 nM |
| C/C(O)=C(\C#N)C(=O)Nc1cc(Br)ccc1Br | > 16000 nM |

As a next step, examine the molecule that follows.
Lookup: Give the measured IC50 of Cc1nc(Nc2ncc(C(=O)Nc3c(C)cccc3Cl)s2)cc(N2CCN(CCO)CC2)n1 [DASATINIB] .
Found: > 1280 nM

----------
Reported pIC50 values for a set of molecules
Tested on: HD-MY-Z
Experiment: cells
Assay type: functional, cell-based
Conditions: Homo sapiens
Description: SANGER: Inhibition of human HD-MY-Z cell growth in a cell viability assay.
pIC50: −log10 of the molar value.

Check out these entries, answers already filled in.
| molecule | parameter measured | observed measurement |
| --- | --- | --- |
| CCn1c(-c2nonc2N)nc2cnc(Oc3cccc(NC(=O)c4ccc(OCCN5CCOCC5)cc4)c3)cc21 [GSK-269962A] | pIC50 | < 5.60 |
| C/C=C(/C)C(=O)O[C@H]1C(C)=C2[C@H]([C@@H]1OC(=O)CCCCCCC)[C@@](C)(OC(C)=O)C[C@H](OC(=O)CCC)[C@@]1(O)[C@H]2OC(=O)[C@@]1(C)O | pIC50 | 7.76 |
| Cc1n[nH]c2ccc(-c3cncc(OC[C@@H](N)Cc4c[nH]c5ccccc45)c3)cc12 | pIC50 | < 5.99 |

As a next step, examine the molecule that follows.
Lookup: Give the measured pIC50 of "Cc1nc(Nc2ncc(C(=O)Nc3c(C)cccc3Cl)s2)cc(N2CCN(CCO)CC2)n1" .
Found: < 5.89

----------
System: SK-N-FI;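 note: cell viability assay measuring growth inhibition of human SK-N-FI cells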
Assay: cells
Type: functional, cell-based
Conditions: Homo sapiens
Description: SANGER: Inhibition of human SK-N-FI cell growth in a cell viability assay.
Reported IC50 values for a set of compounds

Check out these entries, answers already filled in.
| compound | IC50 |
| --- | --- |
| Cc1n[nH]c2ccc(-c3cncc(OC[C@@H](N)Cc4c[nH]c5ccccc45)c3)cc12 | 845 nM |
| CCCS(=O)(=O)Nc1ccc(F)c(C(=O)c2c[nH]c3ncc(Cl)cc23)c1F | > 10000 nM |
| CC(O)(CS(=O)(=O)c1ccc(F)cc1)C(=O)Nc1ccc(C#N)c(C(F)(F)F)c1 (centres undefined) [BICALUTAMIDE] | > 1020 nM |

As a next step, examine the compound that follows.
Lookup: Give the measured IC50 of "N#C/C(=C1/Nc2ccccc2S1)c1ccnc(NCCc2cccnc2)n1" .
Found: > 8000 nM

----------
Reported IC50 values for a set of molecules
Tested on: HT55;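 note: cell viability readout measuring growth inhibition of human HT55 cells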
Test: cells
Format: functional, cell-based
Conditions: Homo sapiens
Description: SANGER: Inhibition of human HT55 cell growth in a cell viability assay.
Numeric answer only, unit µM assumed.

Check out these entries, answers already filled in.
| molecule | IC50, µM |
| --- | --- |
| CO[C@@]12[C@H](COC(N)=O)C3=C(C(=O)C(C)=C(N)C3=O)N1C[C@@H]1N[C@@H]12 [MITOMYCIN] | 1.95 |
| O=C(CCCCCCC(=O)Nc1ccccc1)NO [VORINOSTAT] | 1.65 |

As a next step, examine the molecule that follows.
Lookup: Give the measured IC50 of CC(C)=CC[C@@H](O)C1=CC(=O)c2c(O)ccc(O)c2C1=O [SHIKONIN] .
Found: 1.69
